// provenance: patent US7329682B2

Biological target: 5-lipoxygenase (Mus musculus, UniProt P48999)
Construct: over 98% of cells were confirmed as mast cells originated from bone marrow; endogenous in cells; host or cells: bone marrow-derived mast cells from male BALB/cJ mice
Sequence (P48999 1-674): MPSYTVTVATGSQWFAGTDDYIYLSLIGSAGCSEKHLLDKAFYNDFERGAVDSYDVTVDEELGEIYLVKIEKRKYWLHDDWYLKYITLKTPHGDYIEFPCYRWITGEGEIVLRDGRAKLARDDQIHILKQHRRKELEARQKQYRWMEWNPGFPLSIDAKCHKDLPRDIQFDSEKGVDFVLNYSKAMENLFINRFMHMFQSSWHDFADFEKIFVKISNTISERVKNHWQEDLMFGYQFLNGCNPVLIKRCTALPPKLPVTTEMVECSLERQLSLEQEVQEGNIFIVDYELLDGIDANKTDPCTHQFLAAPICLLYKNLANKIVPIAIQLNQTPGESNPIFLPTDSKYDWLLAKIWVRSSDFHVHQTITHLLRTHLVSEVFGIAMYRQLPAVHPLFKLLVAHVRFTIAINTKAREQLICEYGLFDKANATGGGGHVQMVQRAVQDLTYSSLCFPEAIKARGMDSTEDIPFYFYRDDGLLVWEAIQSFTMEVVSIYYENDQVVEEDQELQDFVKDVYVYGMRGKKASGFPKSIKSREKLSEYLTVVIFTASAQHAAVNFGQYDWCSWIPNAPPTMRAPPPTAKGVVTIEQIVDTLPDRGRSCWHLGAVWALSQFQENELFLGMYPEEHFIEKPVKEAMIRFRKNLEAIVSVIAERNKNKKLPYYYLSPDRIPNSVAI
Test: Measurement of 5-lipoxygenase inhibition activity (free LTC4 from SCF-stimulated bone marrow-derived mast cells, enzyme immunoassay)
Type: cell-based, mouse (male BALB/cJ mice)
Conditions: mast cells originated from bone marrow of BALB/cJ mice, 1×10^6 cells/ml; 30 min preincubation at 37° C.; 100 ng/ml SCF stimulation 20 min; free LTC4 by enzyme immunoassay; vs non-treated control; read-out: IC50
pIC50: −log10 of the molar value.
Reported pIC50 values for the following molecules.
experimentalEndpoint: pIC50

compoundstring=Clc1ccc(Nc2nc3cccnc3s2)cc1Cl systemundertest="5-lipoxygenase (Mus musculus, UniProt P48999)" quantitativereadout=5.80
compoundstring=Clc1ccc2oc(Nc3ccc(N=Nc4ccccc4)cc3)nc2c1 systemundertest="5-lipoxygenase (Mus musculus, UniProt P48999)" quantitativereadout=4.90
compoundstring=Fc1ccc(-c2nc3ccccc3s2)cc1 systemundertest="5-lipoxygenase (Mus musculus, UniProt P48999)" quantitativereadout=4.95
compoundstring=Cc1ccc(-c2nc3ccccc3s2)cc1 systemundertest="5-lipoxygenase (Mus musculus, UniProt P48999)" quantitativereadout=5.28
compoundstring=N#Cc1ccc(-c2nc3ccccc3s2)cc1 systemundertest="5-lipoxygenase (Mus musculus, UniProt P48999)" quantitativereadout=5.36
compoundstring=c1ccc(-c2nc3ccccc3s2)cc1 systemundertest="5-lipoxygenase (Mus musculus, UniProt P48999)" quantitativereadout=5.14
compoundstring=Cc1ccc(-c2nc3ccccc3s2)cc1N systemundertest="5-lipoxygenase (Mus musculus, UniProt P48999)" quantitativereadout=5.38
compoundstring=Clc1ccccc1/C=C/c1nc2ccccc2s1 systemundertest="5-lipoxygenase (Mus musculus, UniProt P48999)" quantitativereadout=5.53
compoundstring=CCc1ccc(Nc2nc3cccnc3s2)cc1 systemundertest="5-lipoxygenase (Mus musculus, UniProt P48999)" quantitativereadout=4.99
compoundstring=CCc1ccc(Nc2nc3cc([N+](=O)[O-])ccc3o2)cc1 systemundertest="5-lipoxygenase (Mus musculus, UniProt P48999)" quantitativereadout=4.62
